Numbers sourced from ChEMBL document CHEMBL1938338.

Target: Eukaryotic translation initiation factor 2-alpha kinase 1 (Homo sapiens) (UniProt Q9BQI3)
Sequence (Q9BQI3 whole entry): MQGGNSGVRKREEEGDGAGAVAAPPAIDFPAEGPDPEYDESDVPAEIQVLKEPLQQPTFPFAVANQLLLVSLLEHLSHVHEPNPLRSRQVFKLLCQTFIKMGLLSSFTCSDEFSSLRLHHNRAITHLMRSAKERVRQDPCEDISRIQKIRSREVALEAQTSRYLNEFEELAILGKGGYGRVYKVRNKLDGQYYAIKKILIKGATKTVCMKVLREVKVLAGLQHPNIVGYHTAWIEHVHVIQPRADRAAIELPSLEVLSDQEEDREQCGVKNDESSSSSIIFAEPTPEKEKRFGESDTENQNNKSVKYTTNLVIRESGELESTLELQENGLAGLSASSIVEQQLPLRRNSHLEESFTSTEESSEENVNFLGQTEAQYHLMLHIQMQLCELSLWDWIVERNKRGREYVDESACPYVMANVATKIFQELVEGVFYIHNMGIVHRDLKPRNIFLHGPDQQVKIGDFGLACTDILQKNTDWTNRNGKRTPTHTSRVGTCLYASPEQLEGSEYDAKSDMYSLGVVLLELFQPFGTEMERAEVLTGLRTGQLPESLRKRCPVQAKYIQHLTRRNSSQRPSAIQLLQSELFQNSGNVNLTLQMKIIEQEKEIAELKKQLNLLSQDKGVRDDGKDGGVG
Test: Activation of EIF2alpha kinase in human CRL2351 cells assessed as reduction in eIF2-GTP-initiator methionine tRNA ternary complex measuring increase in firefly/renilla luciferase ratio at 10 uM after 16 hrs by dual luciferase reporter gene assay relative to control
Format: cell-based
result-type: Ratio
Returns: the value as a bare number; no unit string appended.

# Ratio (molecule: Cc1ccc(NC(=O)Nc2cc(C(F)(F)F)cc(C(F)(F)F)c2)cc1OCCN1CCNCC1 ) is 9

In plain terms, Cc1ccc(NC(=O)Nc2cc(C(F)(F)F)cc(C(F)(F)F)c2)cc1OCCN1CCOCC1 has a documented Ratio of 10

So, Cc1ccc(NC(=O)Nc2cc(C(F)(F)F)cc(C(F)(F)F)c2)cc1OCCN(C)C ? Its Ratio was 9

Record summary for Cc1ccc(NC(=O)Nc2ccc(Cl)c(C(F)(F)F)c2)cc1O : reported Ratio = 11

* * *

Assay: Antiproliferative activity against human CRL2813 cells after 5 days by SRB assay
Type: functional, cell-based
Settings: CRL2813, 120 h
Binary label based on IC50 with cut-off 2 µM: below gives YES, not below gives NO.

Recorded results for 6 compounds are shown here.
>  <record-smiles>
Cc1ccc(NC(=O)Nc2ccc(Cl)c(C(F)(F)F)c2)cc1O

>  <class-name>
YES

$$$$
>  <record-smiles>
Cc1ccc(NC(=O)Nc2cc(C(F)(F)F)cc(C(F)(F)F)c2)cc1OCCN1CCNCC1

>  <class-name>
NO

$$$$
>  <record-smiles>
COc1cc(NC(=O)Nc2ccc(Cl)c(Cl)c2)ccc1C

>  <class-name>
YES

$$$$
>  <record-smiles>
O=C(Nc1ccc(Cl)c(C(F)(F)F)c1)Nc1ncccc1O

>  <class-name>
YES

$$$$
>  <record-smiles>
Cc1ccc(NC(=O)Nc2ccc(Cl)c(Cl)c2)cc1OCCN(C)C

>  <class-name>
NO

$$$$
>  <record-smiles>
O=C(Nc1ccc(Cl)c(C(F)(F)F)c1)Nc1ccc(Cl)c(C(F)(F)F)c1

>  <class-name>
YES

$$$$

Let us examine a further case.
I wonder whether Cc1ccc(NC(=O)Nc2ccc(Cl)c(C(F)(F)F)c2)cc1OCCN(C)C has IC50 below 2 µM. Can you tell?
NO

* * *

Target: Eukaryotic translation initiation factor 2-alpha kinase 1 (Homo sapiens)
Assay: Activation of EIF2alpha kinase in human CRL2351 cells assessed as phosphorylation of eIF2alpha at 5 uM […] by Western blot analysis
Type: cell-based
Active and inactive are the calls of the source. The rule behind the calls is not given here.
Valid outcomes are listed here; reply with one: TRUE (active), FALSE (inactive)

Previously resolved entries follow.
>  <record-smiles>
COc1cc(NC(=O)Nc2ccc(Cl)c(Cl)c2)ccc1C

>  <class-name>
FALSE

$$$$
>  <record-smiles>
O=C(Nc1ccc(Cl)c(C(F)(F)F)c1)Nc1ncccc1O

>  <class-name>
TRUE

$$$$
>  <record-smiles>
COc1cc(NC(=O)Nc2cc(C(F)(F)F)cc(C(F)(F)F)c2)ccc1C

>  <class-name>
TRUE

$$$$

For the next question, use this compound.
// return assay outcome for O=C(Nc1cc(C(F)(F)F)cc(C(F)(F)F)c1)Nc1cc(C(F)(F)F)cc(C(F)(F)F)c1
TRUE

* * *

Molecular target: Eukaryotic translation initiation factor 2-alpha kinase 1 (Mus musculus) (UniProt Q9Z2R9)
Sequence (Q9Z2R9 whole entry): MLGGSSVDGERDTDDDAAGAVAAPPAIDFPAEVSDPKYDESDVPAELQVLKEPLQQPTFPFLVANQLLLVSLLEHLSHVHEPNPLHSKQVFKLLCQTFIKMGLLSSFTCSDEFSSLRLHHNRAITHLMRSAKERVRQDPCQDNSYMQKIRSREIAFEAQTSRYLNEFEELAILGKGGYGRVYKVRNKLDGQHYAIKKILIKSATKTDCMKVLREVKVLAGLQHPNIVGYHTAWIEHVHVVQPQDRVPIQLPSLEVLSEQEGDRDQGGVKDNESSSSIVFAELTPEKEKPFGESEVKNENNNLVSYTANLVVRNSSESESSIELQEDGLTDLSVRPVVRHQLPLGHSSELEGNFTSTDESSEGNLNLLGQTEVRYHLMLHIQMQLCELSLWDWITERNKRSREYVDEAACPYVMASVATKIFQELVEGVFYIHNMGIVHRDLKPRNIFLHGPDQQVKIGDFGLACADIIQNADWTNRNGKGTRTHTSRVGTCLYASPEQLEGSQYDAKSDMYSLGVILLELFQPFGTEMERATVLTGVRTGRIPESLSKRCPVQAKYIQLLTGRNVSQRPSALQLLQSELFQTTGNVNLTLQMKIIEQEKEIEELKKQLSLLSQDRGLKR
Test: Activation of EIF2alpha kinase in mouse KLN205 cells assessed as phosphorylation of eIF2alpha at 20 uM […] by Western blot analysis
Format: cell-based
Calls of active or inactive are those of the source. No cut-off for these calls is given here.
Outcomes you can answer with include only these: active, inactive

# example entries with known answers
>  <record-smiles>
COc1cc(NC(=O)Nc2ccc(Cl)c(Cl)c2)ccc1C

>  <class-name>
inactive

$$$$
>  <record-smiles>
O=C(Nc1cc(C(F)(F)F)cc(C(F)(F)F)c1)Nc1cc(C(F)(F)F)cc(C(F)(F)F)c1

>  <class-name>
active

$$$$

Name the outcome recorded for O=C(Nc1ccc(Cl)c(C(F)(F)F)c1)Nc1ncccc1O in the assay.
active

So what was the verdict on COc1cc(NC(=O)Nc2cc(C(F)(F)F)cc(C(F)(F)F)c2)ccc1C in this test?
active

* * *

Target: Eukaryotic translation initiation factor 2-alpha kinase 1 (Mus musculus) (UniProt Q9Z2R9)
Assay: Activation of EIF2alpha kinase in mouse KLN205 cells assessed as CHOP mRNA expression at 20 uM after 5 hrs by PCR analysis
Format: cell-based
Activity calls are given as the source filed them. The calls are words filed in the database; no cut-off is given here.
Outcomes you can answer with include only these: active, inactive

// known answers, use as guide
>  <record-smiles>
COc1cc(NC(=O)Nc2cc(C(F)(F)F)cc(C(F)(F)F)c2)ccc1C

>  <class-name>
active

$$$$
>  <record-smiles>
O=C(Nc1ccc(Cl)c(C(F)(F)F)c1)Nc1ncccc1O

>  <class-name>
active

$$$$
>  <record-smiles>
COc1cc(NC(=O)Nc2ccc(Cl)c(Cl)c2)ccc1C

>  <class-name>
inactive

$$$$

Assay result, entry O=C(Nc1cc(C(F)(F)F)cc(C(F)(F)F)c1)Nc1cc(C(F)(F)F)cc(C(F)(F)F)c1 — outcome?
active

* * *

Biological target: Eukaryotic translation initiation factor 2-alpha kinase 1 (Homo sapiens) (UniProt Q9BQI3)
Assay: Activation of EIF2alpha kinase in human CRL2351 cells assessed as CHOP mRNA expression at 5 uM after 5 hrs by PCR analysis
Format: cell-based
The source made the active and inactive calls. The rule behind the calls is not given here.
Write down one outcome, taken from active, inactive

>  <record-smiles>
O=C(Nc1ccc(Cl)c(C(F)(F)F)c1)Nc1ncccc1O

>  <class-name>
active

$$$$
>  <record-smiles>
O=C(Nc1cc(C(F)(F)F)cc(C(F)(F)F)c1)Nc1cc(C(F)(F)F)cc(C(F)(F)F)c1

>  <class-name>
active

$$$$
>  <record-smiles>
COc1cc(NC(=O)Nc2ccc(Cl)c(Cl)c2)ccc1C

>  <class-name>
inactive

$$$$

Field: next compound
What was the test verdict on COc1cc(NC(=O)Nc2cc(C(F)(F)F)cc(C(F)(F)F)c2)ccc1C ?
active

* * *

Target: Eukaryotic translation initiation factor 2-alpha kinase 1 (Homo sapiens) (UniProt Q9BQI3)
Assay: Activation of EIF2alpha kinase in human CRL2351 cells assessed as reduction in eIF2-GTP-initiator methionine tRNA ternary complex measuring increase in firefly/renilla luciferase ratio at 2.5 to 20 uM after 16 hrs by dual luciferase reporter gene assay relative to control
Type: cell-based
Calls of active or inactive are those of the source. No cut-off for these calls is given here.
Just give me one of these, please: true = active, false = inactive

>  <record-smiles>
Cc1ccc(NC(=O)Nc2ccc(Cl)c(Cl)c2)cc1OCCN1CCNCC1

>  <target-desc>
Eukaryotic translation initiation factor 2-alpha kinase 1 (Homo sapiens) (UniProt Q9BQI3)

>  <class-name>
true

$$$$
>  <record-smiles>
COc1cc(NC(=O)Nc2ccc(Cl)c(Cl)c2)ccc1C

>  <target-desc>
Eukaryotic translation initiation factor 2-alpha kinase 1 (Homo sapiens) (UniProt Q9BQI3)

>  <class-name>
false

$$$$
>  <record-smiles>
Cc1ccc(NC(=O)Nc2ccc(Cl)c(Cl)c2)cc1OCCN(C)C

>  <target-desc>
Eukaryotic translation initiation factor 2-alpha kinase 1 (Homo sapiens) (UniProt Q9BQI3)

>  <class-name>
true

$$$$

Shifting focus to the compound that follows.
I would be grateful if you could indicate the recorded call for Cc1ccc(NC(=O)Nc2ccc(Cl)c(Cl)c2)cc1OCCN1CCOCC1 .
true

* * *

Molecular target: Eukaryotic translation initiation factor 2-alpha kinase 1 (Homo sapiens)
Assay: Activation of EIF2alpha kinase in human CRL2351 cells assessed as CHOP protein expression at 5 uM […] by Western blot analysis
Format: cell-based
The source made the active and inactive calls. The calls are words filed in the database; no cut-off is given here.
Reply using exactly one outcome from class 1 (active), class 0 (inactive)

>  <record-smiles>
O=C(Nc1ccc(Cl)c(C(F)(F)F)c1)Nc1ncccc1O

>  <class-name>
class 1

$$$$
>  <record-smiles>
O=C(Nc1cc(C(F)(F)F)cc(C(F)(F)F)c1)Nc1cc(C(F)(F)F)cc(C(F)(F)F)c1

>  <class-name>
class 1

$$$$
>  <record-smiles>
COc1cc(NC(=O)Nc2ccc(Cl)c(Cl)c2)ccc1C

>  <class-name>
class 0

$$$$

# evaluate next
How did this test come out for COc1cc(NC(=O)Nc2cc(C(F)(F)F)cc(C(F)(F)F)c2)ccc1C ?
class 1

* * *

Biological target: Eukaryotic translation initiation factor 2-alpha kinase 1 (Homo sapiens) (UniProt Q9BQI3)
Experiment: Activation of EIF2alpha kinase in human CRL2351 cells assessed as reduction in eIF2-GTP-initiator methionine tRNA ternary complex measuring increase in firefly/renilla luciferase ratio at 5 uM after 16 hrs by dual luciferase reporter gene assay relative to control
Type: cell-based
Listed molecules paired with reported Ratio
Could you respond with only the numeric value?

Here's what some known entries look like.
>  <record-smiles>
COc1cc(NC(=O)Nc2ccc(Cl)c(C(F)(F)F)c2)ccc1C

>  <result-type>
Ratio

>  <numeric-readout>
8

$$$$
>  <record-smiles>
O=C(Nc1ccc(Cl)c(Cl)c1)Nc1ccc(Cl)c(Cl)c1

>  <result-type>
Ratio

>  <numeric-readout>
11

$$$$

Continue with the next molecule.
Record COc1cc(NC(=O)Nc2cc(C(F)(F)F)cc(C(F)(F)F)c2)ccc1C . Reported Ratio: 9
